B1: SCNN1D (parent)
chain: FYRLYQDLETHRLPCTSRCPRPCR

variants of: B1; assay: protein stability index of a GFP-peptide fusion (GPS, HEK-293T) (PSI 1-6); higher = more stable; conditions: c terminus: a fixed tail appended;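 also: lentivirally expressed fusions sorted by FACS into six bins by GFP to DsRed ratio, PSI derived from sequencing read proportions per bin multiplied by bin number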
Attribute: protein stability index

# var, protein stability index
records = [
    ("R3M", 2.09),
    ("C19D", 2.03),
    ("H11A", 2.31),
    ("R21P", 2.26),
    ("Q6G", 1.7),
    ("P14F", 1.79),
    ("L8M", 2.02),
    ("L8H", 2.97),
    ("L8G", 2.97),
    ("D7H", 1.5),
    ("L4R", 2.49),
    ("T10W", 2.05),
    ("C15A", 2.07),
    ("H11Y", 1.97),
    ("Y2H", 1.59),
    ("L13R", 3.39),
    ("E9M", 2.87),
    ("R12S", 3.51),
    ("R24W", 1.3),
    ("F1N", 3.47),
    ("C23D", 3.36),
    ("R3N", 2.22),
    ("E9V", 2.29),
    ("T10D", 2.82),
    ("C19L", 2.68),
    ("L4M", 2.34),
    ("L8T", 2.09),
    ("Y5E", 3.17),
    ("T16R", 1.46),
    ("E9Q", 1.83),
    ("T16W", 1.51),
    ("C19S", 2.09),
    ("R3K", 2.58),
    ("P20Y", 1.44),
    ("L8V", 2.16),
    ("H11C", 2.62),
    ("H11M", 1.74),
    ("Y5S", 2.57),
    ("R21Q", 3.16),
    ("H11S", 2.21),
    ("P20T", 2.88),
    ("C23F", 1.71),
    ("Y5L", 3.17),
    ("P22F", 1.8),
    ("S17L", 1.5),
    ("S17M", 1.86),
    ("L4N", 3.29),
    ("P14L", 3.27),
    ("P14M", 1.6),
    ("R24Y", 1.67),
    ("C15S", 2.64),
    ("P22I", 1.72),
    ("R18L", 1.86),
    ("L4Y", 2.14),
    ("L4W", 2.59),
    ("R21H", 3.38),
    ("R21S", 1.88),
    ("C15I", 2.48),
    ("E9P", 2.05),
    ("C19T", 3.26),
    ("F1K", 3.37),
    ("C19K", 1.96),
    ("L13G", 2.66),
    ("P20E", 1.32),
    ("L4F", 2.04),
    ("E9W", 1.08),
    ("D7A", 1.32),
    ("P20D", 1.81),
    ("L4C", 1.56),
    ("P14E", 2.39),
    ("H11R", 2.48),
    ("Y5I", 1.76),
    ("R18H", 1.91),
    ("P20R", 2.07),
    ("L4K", 3.68),
    ("Y5P", 3.49),
    ("P22N", 2.72),
    ("C23T", 2.37),
    ("H11W", 2.05),
    ("R12M", 2.33),
    ("R18P", 1.74),
    ("H11F", 1.64),
    ("C19R", 2.21),
    ("C23A", 2.23),
    ("C15H", 2.28),
    ("R12C", 2.3),
    ("F1D", 3.8),
    ("Y5A", 4.45),
    ("Q6C", 1.68),
    ("C19A", 1.94),
    ("Y2N", 3.63),
]

Data origin, for the record: the supplement of paper PMC10567573
